system: ECC-1 cells; assay: Cell viability assay (MTS / acid phosphatase), combination index by Chou-Talalay; type: cell-based; details: Homo sapiens, ECC-1, read-out: IC50 (concentration for 50% growth inhibition), pterostilbene alone, 48 h, one range printed for both cell lines
quantity name: IC50

[
  {
    "compound": "COc1cc(/C=C/c2ccc(O)cc2)cc(OC)c1 [pterostilbene]",
    "test result": "72 to 78 µM"
  }
]

Data origin, for the record: patent US11389460B2
